# study.system: full-length human PIKFYVE (Homo sapiens (Human), UniProt Q9Y2I7, L932S/Q1183K/Q995L/S1033A/S696N/T998S)
# Sequence (Q9Y2I7 whole entry S696N/L932S/Q995L/T998S/S1033A/Q1183K): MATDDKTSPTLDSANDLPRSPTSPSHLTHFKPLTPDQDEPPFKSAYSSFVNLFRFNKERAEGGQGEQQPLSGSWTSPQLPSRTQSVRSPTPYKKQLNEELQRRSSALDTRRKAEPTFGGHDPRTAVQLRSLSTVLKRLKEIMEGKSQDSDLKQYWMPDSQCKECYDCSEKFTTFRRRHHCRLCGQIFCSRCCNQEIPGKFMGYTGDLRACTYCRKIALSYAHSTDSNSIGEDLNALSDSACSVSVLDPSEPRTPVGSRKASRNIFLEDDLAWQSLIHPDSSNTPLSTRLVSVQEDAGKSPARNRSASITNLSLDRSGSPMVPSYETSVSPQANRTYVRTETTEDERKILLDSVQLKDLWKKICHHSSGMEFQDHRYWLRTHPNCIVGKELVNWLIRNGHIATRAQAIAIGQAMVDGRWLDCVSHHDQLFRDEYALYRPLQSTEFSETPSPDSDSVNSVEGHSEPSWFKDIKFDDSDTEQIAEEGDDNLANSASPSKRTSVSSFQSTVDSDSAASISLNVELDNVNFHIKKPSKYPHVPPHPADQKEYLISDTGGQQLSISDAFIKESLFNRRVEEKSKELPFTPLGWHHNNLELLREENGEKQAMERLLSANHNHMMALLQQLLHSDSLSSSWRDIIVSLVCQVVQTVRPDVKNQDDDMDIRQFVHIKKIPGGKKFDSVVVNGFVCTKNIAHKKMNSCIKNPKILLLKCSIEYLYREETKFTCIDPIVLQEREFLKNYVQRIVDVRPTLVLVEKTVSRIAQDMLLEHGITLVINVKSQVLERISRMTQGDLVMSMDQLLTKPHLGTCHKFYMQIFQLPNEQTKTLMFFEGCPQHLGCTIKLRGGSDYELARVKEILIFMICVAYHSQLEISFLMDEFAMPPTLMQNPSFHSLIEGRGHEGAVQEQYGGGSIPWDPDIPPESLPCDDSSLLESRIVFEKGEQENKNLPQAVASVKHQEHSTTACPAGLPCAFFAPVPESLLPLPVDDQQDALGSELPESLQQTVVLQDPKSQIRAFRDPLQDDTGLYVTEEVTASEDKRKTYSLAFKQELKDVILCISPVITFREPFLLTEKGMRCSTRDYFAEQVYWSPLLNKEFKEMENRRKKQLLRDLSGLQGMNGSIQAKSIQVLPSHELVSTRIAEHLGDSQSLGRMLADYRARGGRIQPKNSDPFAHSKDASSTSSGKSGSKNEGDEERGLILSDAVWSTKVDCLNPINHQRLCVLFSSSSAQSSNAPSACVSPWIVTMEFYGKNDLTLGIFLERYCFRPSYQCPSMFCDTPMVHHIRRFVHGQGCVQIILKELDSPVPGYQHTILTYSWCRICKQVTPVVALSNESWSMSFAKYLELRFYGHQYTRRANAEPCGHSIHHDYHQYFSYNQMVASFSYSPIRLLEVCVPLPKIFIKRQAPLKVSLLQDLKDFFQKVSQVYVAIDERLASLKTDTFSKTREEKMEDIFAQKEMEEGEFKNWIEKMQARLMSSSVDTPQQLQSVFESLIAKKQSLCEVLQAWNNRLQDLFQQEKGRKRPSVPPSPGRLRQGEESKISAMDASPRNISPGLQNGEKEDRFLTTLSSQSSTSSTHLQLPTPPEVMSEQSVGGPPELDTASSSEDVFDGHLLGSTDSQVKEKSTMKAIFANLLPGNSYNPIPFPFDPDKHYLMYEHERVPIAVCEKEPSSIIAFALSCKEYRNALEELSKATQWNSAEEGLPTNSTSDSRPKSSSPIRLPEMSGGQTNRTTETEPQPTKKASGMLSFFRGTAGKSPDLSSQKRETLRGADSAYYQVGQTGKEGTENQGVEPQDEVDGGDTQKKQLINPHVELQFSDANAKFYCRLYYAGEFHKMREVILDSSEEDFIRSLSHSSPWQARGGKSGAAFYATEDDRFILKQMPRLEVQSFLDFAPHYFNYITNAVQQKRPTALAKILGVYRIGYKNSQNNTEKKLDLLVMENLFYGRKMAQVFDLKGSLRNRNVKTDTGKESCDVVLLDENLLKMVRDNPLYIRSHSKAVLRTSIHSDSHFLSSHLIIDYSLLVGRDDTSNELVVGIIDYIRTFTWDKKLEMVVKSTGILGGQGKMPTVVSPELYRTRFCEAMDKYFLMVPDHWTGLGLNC
# test.description: PIKfyve biochemical assay (ADP-Glo Kinase assay, Carna Biosciences)
# condition.parameters: ADP-Glo, GST-PIKFYVE, 10 μM to 3 nM; read-out: hPIKfyve IC50
experimental.endpoint: IC50

INSERT INTO results (compound, experimental_endpoint, result) VALUES
  ('Cn1c(-c2ccncc2)nc2c(N3CCOCC3)nc(-n3ccc(C4CCOC4)n3)nc21 (stereo not shown)', 'IC50', '1000 to 10000 nM'),
  ('c1ccc(-n2ccc(-c3nc(N4CCOCC4)c4cc(-c5ccncc5)sc4n3)n2)cc1', 'IC50', '10 to 100 nM'),
  ('Cn1c(C2CCNC2)nc2c(N3CCOCC3)nc(-n3ccc(-c4ccccc4)n3)nc21 (stereo not shown)', 'IC50', '10 to 100 nM'),
  ('c1ccc(-c2nccc(-c3nc(N4CCOCC4)c4sc(-c5ccncc5)nc4n3)n2)cc1', 'IC50', '100 to 1000 nM');

----------
Below, each entry is listed alongside its reported IC50.
# study.system: hPIKfyve (Homo sapiens (Human), UniProt Q9Y2I7)
# Sequence (Q9Y2I7 whole entry, the tested form may be a part): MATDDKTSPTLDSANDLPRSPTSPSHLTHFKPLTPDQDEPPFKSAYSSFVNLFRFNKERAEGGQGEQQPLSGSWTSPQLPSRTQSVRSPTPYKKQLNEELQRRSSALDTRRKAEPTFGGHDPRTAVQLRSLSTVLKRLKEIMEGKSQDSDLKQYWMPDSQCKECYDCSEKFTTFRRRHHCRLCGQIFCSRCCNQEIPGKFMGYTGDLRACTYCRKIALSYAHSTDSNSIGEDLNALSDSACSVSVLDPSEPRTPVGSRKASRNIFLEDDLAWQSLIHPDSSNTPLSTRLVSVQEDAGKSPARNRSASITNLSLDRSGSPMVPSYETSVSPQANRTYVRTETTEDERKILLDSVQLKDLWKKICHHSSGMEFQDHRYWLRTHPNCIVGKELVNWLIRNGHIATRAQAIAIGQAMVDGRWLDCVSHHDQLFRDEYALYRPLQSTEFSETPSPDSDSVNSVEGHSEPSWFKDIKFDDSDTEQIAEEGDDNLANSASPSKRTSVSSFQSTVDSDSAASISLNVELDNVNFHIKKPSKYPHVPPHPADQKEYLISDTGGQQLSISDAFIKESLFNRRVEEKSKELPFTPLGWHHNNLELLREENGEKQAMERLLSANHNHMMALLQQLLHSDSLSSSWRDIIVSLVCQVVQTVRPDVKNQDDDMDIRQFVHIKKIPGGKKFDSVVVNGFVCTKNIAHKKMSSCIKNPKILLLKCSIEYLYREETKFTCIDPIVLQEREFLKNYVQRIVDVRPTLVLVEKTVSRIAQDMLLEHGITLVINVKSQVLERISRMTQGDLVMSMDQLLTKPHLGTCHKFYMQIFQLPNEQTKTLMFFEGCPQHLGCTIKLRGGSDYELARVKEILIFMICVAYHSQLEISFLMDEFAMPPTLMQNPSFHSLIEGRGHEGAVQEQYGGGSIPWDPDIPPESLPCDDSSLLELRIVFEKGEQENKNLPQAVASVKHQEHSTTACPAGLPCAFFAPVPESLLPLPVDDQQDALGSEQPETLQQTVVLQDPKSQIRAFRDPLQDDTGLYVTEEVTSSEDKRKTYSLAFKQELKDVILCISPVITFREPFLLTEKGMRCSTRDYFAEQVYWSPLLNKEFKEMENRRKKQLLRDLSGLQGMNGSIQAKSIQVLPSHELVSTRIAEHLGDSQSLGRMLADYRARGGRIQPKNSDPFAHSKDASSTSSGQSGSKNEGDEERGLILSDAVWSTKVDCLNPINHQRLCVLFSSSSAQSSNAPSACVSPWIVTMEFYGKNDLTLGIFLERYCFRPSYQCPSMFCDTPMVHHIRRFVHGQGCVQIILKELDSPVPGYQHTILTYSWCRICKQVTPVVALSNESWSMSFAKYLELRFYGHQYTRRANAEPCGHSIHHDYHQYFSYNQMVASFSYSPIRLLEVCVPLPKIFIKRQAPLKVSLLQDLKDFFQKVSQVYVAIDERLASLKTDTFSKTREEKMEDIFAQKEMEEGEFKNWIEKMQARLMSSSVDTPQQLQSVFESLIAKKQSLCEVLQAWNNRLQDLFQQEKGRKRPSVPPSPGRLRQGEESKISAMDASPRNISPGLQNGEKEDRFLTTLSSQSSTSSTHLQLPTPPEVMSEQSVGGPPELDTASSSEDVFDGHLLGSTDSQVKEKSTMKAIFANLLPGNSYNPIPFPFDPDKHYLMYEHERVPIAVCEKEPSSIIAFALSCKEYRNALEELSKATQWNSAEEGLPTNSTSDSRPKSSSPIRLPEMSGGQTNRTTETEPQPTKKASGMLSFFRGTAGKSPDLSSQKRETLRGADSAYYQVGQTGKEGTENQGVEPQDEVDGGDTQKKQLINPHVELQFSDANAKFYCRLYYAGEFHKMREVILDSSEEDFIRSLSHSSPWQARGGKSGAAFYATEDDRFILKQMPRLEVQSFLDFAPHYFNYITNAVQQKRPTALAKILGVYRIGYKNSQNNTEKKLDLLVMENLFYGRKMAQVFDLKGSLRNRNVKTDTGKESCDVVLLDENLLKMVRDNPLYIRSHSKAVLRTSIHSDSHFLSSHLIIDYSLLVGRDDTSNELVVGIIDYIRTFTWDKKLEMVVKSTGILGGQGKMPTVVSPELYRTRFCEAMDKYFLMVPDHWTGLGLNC
# test.description: NanoBRET TE Intracellular Kinase Assay, K-8, in HEK293 cells transfected with PIKFYVE-NanoLuc Fusion Vector
# condition.parameters: 2 hours, tracer displacement, read-out: hPIKfyve BRET IC50
experimental.endpoint: IC50

INSERT INTO assay_data (compound, result) VALUES
  ('Cn1c(-c2ccncc2)nc2c(N3CCOCC3)nc(-n3cccn3)nc21 [Compound 47]', '100 to 1000 nM'),
  ('Cn1c(-c2ccncc2)nc2c(N3CCOCC3)nc(-n3ccc(-c4cccc(F)c4)n3)nc21 [Compound 28]', '10 to 100 nM'),
  ('Cn1c(-c2ccncc2)nc2c(N3CCOCC3)nc(-c3noc(-c4ccccc4)n3)nc21 [Compound 32]', '100 to 1000 nM'),
  ('c1cc(-c2nc3c(N4CCOCC4)nc(-n4ccc(C5CCOCC5)n4)nc3[nH]2)ccn1 [Compound 6]', '10 to 100 nM');

----------
# study.system: full-length human PIKFYVE (Homo sapiens (Human), UniProt Q9Y2I7, L932S/Q1183K/Q995L/S1033A/S696N/T998S)
# test.description: PIKfyve biochemical assay (ADP-Glo Kinase assay, Carna Biosciences)
# condition.parameters: ADP-Glo, GST-PIKFYVE, 10 μM to 3 nM; read-out: hPIKfyve IC50
pIC50: −log10 of the molar value.
Below, each entry is listed alongside its reported pIC50.
experimental.endpoint: pIC50

INSERT INTO results (compound, result) VALUES
  ('Cn1c(C2CCCNC2)nc2c(N3CCOCC3)nc(-n3ccc(-c4ccccc4)n3)nc21 (stereo not shown)', '6.00 to 7.00'),
  ('Cn1c(-c2ccncc2)nc2c(N3CCOCC3)nc(-n3ccc(C4CCN(C(=O)OC(C)(C)C)C4)n3)nc21 (stereo not shown)', '6.00 to 7.00'),
  ('Cn1c(-c2ccncc2)nc2c(N3CCOCC3)nc(-c3ccnc(-c4ccccc4)n3)nc21', '7.00 to 8.00'),
  ('CN1CC(Cc2ccn(-c3nc(N4CCOCC4)c4nc(-c5ccncc5)n(C)c4n3)n2)C1', '> 8.00');

----------
# study.system: full-length human PIKFYVE (Homo sapiens (Human), UniProt Q9Y2I7, L932S/Q1183K/Q995L/S1033A/S696N/T998S)
# test.description: PIKfyve biochemical assay (ADP-Glo Kinase assay, Carna Biosciences)
# condition.parameters: values plotted in FIG. 7; read-out: PIKFYVE Biochemistry (IC50)
pIC50: −log10 of the molar value.
experimental.endpoint: pIC50

INSERT INTO assay_data (compound, inequality_symbol, numeric_value) VALUES
  ('c1ccc(-c2cccc(-c3nc(N4CCOCC4)n4nc(-c5ccncc5)cc4n3)n2)cc1', '=', 7.85),
  ('Cn1c(-c2ccncc2)nc2c(N3CCOCC3)ncnc21 [drawing 169]', '=', 8.15),
  ('c1cc(-c2cc3nc(C4CNC4)nc(N4CCOCC4)n3n2)ccn1', '=', 5.10),
  ('c1ccc(-c2nc(-c3cc(N4CCOCC4)nc(OCc4ccncc4)n3)no2)cc1', '<', 5.00),
  ('Cc1cccc(/C=N/Nc2nc(N3CCOCC3)c3nc(-c4ccncc4)n(C)c3n2)c1 [drawing 177]', '=', 8.30),
  ('Cc1cccc(/C=N/Nc2nc(N3CCOCC3)c3nc(-c4ccncc4)n(C)c3n2)c1 [drawing 168]', '=', 9.00),
  ('O=c1c(CCOc2cccnc2)cc2ncncc2n1-c1ccccc1', '<', 5.00),
  ('Fc1cccc(-c2ccnn2-c2nc(N3CCOCC3)c3ncccc3n2)c1', '<', 5.00),
  ('Cc1cccc(/C=N/Nc2cc(N3CC4CC3CO4)n3nc(-c4ccncc4)cc3n2)c1 (centres unmarked)', '=', 8.52),
  ('O=c1ccn(Cc2nc(N3CCOCC3)cc(-n3nccc3-c3ccccc3)n2)cc1', '<', 5.00),
  ('c1ccc(C2CN(c3nc(N4CCOCC4)n4nc(-c5ccncc5)cc4n3)CCN2)cc1 (centres unmarked)', '=', 5.58);

----------
Below, each entry is listed alongside its reported IC50.
# study.system: full-length human PIKFYVE (Homo sapiens (Human), UniProt Q9Y2I7, L932S/Q1183K/Q995L/S1033A/S696N/T998S)
# test.description: PIKfyve biochemical assay (ADP-Glo Kinase assay, Carna Biosciences)
# condition.parameters: ADP-Glo, GST-PIKFYVE, 10 μM to 3 nM; read-out: hPIKfyve IC50
experimental.endpoint: IC50

INSERT INTO assay_data (molecule, experimental_endpoint, result) VALUES
  ('Cn1c(-c2ccncc2)nc2nc(-c3ccnc(-c4ccccc4)n3)nc(N3CCOCC3)c21 [Compound 2]', 'IC50', '1000 to 10000 nM'),
  ('Cn1c(C2CCOCC2)nc2c(N3CCOCC3)nc(-n3ccc(-c4cccc(C#N)c4)n3)nc21 [Compound 39]', 'IC50', '1000 to 10000 nM'),
  ('Cn1c(-c2ccncc2)nc2c(N3CCOCC3)nc(-n3cccn3)nc21 [Compound 47]', 'IC50', '10 to 100 nM'),
  ('Cn1c(-c2ccncc2)nc2c(N3CCOCC3)nc(-c3noc(C4CCCN(C(=O)OC(C)(C)C)C4)n3)nc21 (centres unmarked) [Compound 33]', 'IC50', '100 to 1000 nM'),
  ('Cn1c(-c2ccncc2)nc2c(N3CCOCC3)nc(-n3ccc(C4CCCN(C(=O)OC(C)(C)C)C4)n3)nc21 (centres unmarked) [Compound 29]', 'IC50', '100 to 1000 nM'),
  ('Cc1cccc(/C=N/Nc2nc(N3CCOCC3)c3nc(-c4ccncc4)n(C)c3n2)c1 [Compound 52]', 'IC50', '< 10 nM'),
  ('Cn1c(-c2ccncc2)nc2c(N3CCOCC3)nc(-n3cc(-c4ccccc4)cn3)nc21 [Compound 92]', 'IC50', '10 to 100 nM'),
  ('Cn1c(-c2ccncc2)nc2c(N3CCOCC3)nc(-c3ccc4c(c3)OCO4)nc21 [Compound 99]', 'IC50', '10 to 100 nM'),
  ('CC(C)c1ccn(-c2nc(N3CCOCC3)c3nc(-c4ccncc4)n(C)c3n2)n1 [Compound 23]', 'IC50', '100 to 1000 nM'),
  ('Cn1c(C2CCOCC2)nc2c(N3CCOCC3)nc(-n3ccc(-c4cccnc4)n3)nc21 [Compound 19]', 'IC50', '1000 to 10000 nM'),
  ('Cn1c(-c2ccncc2)nc2c(N3CCOCC3)nc(-c3cc[nH]n3)nc21 [Compound 49]', 'IC50', '10 to 100 nM'),
  ('Cn1c(-c2ccncc2)nc2c(N3CCOCC3)nc(-n3ccc(C(F)(F)F)n3)nc21 [Compound 100]', 'IC50', '< 10 nM'),
  ('Cn1c(-c2ccncc2)nc2c(N3CCOCC3)nc(-c3ccnc(C4CCCNC4)n3)nc21 (centres unmarked) [Compound 95]', 'IC50', '100 to 1000 nM'),
  ('Cn1c(-c2ccncc2)nc2c(N3CCOCC3)nc(-n3ccc(C4CCCNC4)n3)nc21 (centres unmarked) [Compound 17]', 'IC50', '100 to 1000 nM'),
  ('CCn1c(-c2ccncc2)nc2c(N3CCOCC3)nc(-n3ccc(-c4ccccc4)n3)nc21 [Compound 5]', 'IC50', '10 to 100 nM'),
  ('Cn1c(-c2ccncc2)nc2c(N3CCOCC3)nc(-c3ccnc(C4CC4)n3)nc21 [Compound 97]', 'IC50', '10 to 100 nM'),
  ('Cc1cccc(/C=N/Nc2nc(N3CCOCC3)c3nc(-c4ccncc4)oc3n2)c1 [Compound 120]', 'IC50', '< 10 nM'),
  ('Cn1c(C2=CCOCC2)nc2c(N3CCOCC3)nc(-n3ccc(-c4cccnc4)n3)nc21 [Compound 85]', 'IC50', '10 to 100 nM'),
  ('Cn1c(-c2ccncc2)nc2c(N3CCOCC3)nc(-n3nc(C4CCCCC4)[nH]c3=O)nc21 [Compound 50]', 'IC50', '100 to 1000 nM'),
  ('CN1CCCC(c2nc(-c3nc(N4CCOCC4)c4nc(-c5ccncc5)n(C)c4n3)no2)C1 (centres unmarked) [Compound 30]', 'IC50', '100 to 1000 nM'),
  ('CN1CCC(c2ccn(-c3nc(N4CCOCC4)c4nc(-c5ccncc5)n(C)c4n3)n2)C1 (centres unmarked) [Compound 37]', 'IC50', '100 to 1000 nM'),
  ('Cn1c(-c2ccncc2)nc2c(N3CCOCC3)ncnc21 [Compound 8]', 'IC50', '100 to 1000 nM'),
  ('Cn1c(-c2ccncc2)nc2c(N3CCOCC3)nc(-c3ccnc(C(F)(F)F)n3)nc21 [Compound 94]', 'IC50', '10 to 100 nM'),
  ('c1ccc(-c2nccc(-c3nc(N4CCOCC4)c4nc(-c5ccncc5)sc4n3)n2)cc1 [Compound 123]', 'IC50', '10 to 100 nM'),
  ('Cn1c(-c2ccncc2)nc2c(N3CCOCC3)nc(-c3cccnc3)nc21 [Compound 104]', 'IC50', '10 to 100 nM'),
  ('CN1Cc2ccc(-c3nc(N4CCOCC4)c4nc(-c5ccncc5)n(C)c4n3)cc2C1=O [Compound 107]', 'IC50', '< 10 nM'),
  ('Cn1c(-c2ccncc2)nc2c(N3CCOCC3)nc(-c3ccc4c(c3)NCCC4)nc21 [Compound 114]', 'IC50', '< 10 nM'),
  ('Cc1nn(-c2nc(N3CCOCC3)c3nc(-c4ccncc4)n(C)c3n2)c(=O)n1-c1ccccc1 [Compound 24]', 'IC50', '100 to 1000 nM'),
  ('Cn1c(C2CCOCC2)nc2c(N3CCOCC3)nc(-n3ccc(-c4cncnc4)n3)nc21 [Compound 20]', 'IC50', '1000 to 10000 nM'),
  ('COc1ccc(-c2nc(N3CCOCC3)c3nc(-c4ccncc4)n(C)c3n2)cc1OC [Compound 106]', 'IC50', '< 10 nM'),
  ('Cc1cccc(/C=N/Nc2nc(N3CCOCC3)c3nc(-c4ccncc4)[nH]c3n2)c1 [Compound 119]', 'IC50', '< 10 nM'),
  ('Cn1c(-c2ccncc2)nc2c(N3CCOCC3)nc(-n3ccc(-c4ccncc4)n3)nc21 [Compound 27]', 'IC50', '10 to 100 nM');
